# experimentalSystem: Human PD-L1/PD-1 (Homo sapiens, UniProt Q9NZQ7)
# Construct: TVMV protease cleavage site (C); made in house; host or cells: HEK293T cells
# Sequence (Q9NZQ7 with tags, fused parts or gaps): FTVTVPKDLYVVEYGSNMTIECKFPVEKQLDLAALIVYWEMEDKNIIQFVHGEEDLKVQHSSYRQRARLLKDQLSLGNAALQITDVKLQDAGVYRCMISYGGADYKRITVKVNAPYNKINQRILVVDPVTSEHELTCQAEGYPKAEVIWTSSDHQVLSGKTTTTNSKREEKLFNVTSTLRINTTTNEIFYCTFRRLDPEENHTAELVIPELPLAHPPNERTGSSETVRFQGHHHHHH
# protocolDetails: HTRF Human PD-L1/PD-1 binding assay (PD-1-Ig/PD-L1-His)
# conditionsUsed: PD-L1-His 10 nM, PD-1-Ig 20 nM; class symbol; read-out: HTRF Human PD-L1/PD-1 Binding Assay IC50 Range
pIC50: −log10 of the molar value. Where a SMILES comes first, the peptide text is derived from it. Bridges are numbered along the chain shown (N, C = ends). [ ]: non-standard residue; d: D form. ξ: configuration not given here. Hyp = O=C(O)[C@@H]1C[C@@H](O)CN1; NMeNle = CCCC[C@H](NC)C(=O)O; NMeA = CN[C@@H](C)C(=O)O; ξC = NC(CS)C(=O)O
assayMetric: pIC50

| molecule | experimentalSystem | assayMetric | endpointResult |
| --- | --- | --- | --- |
| CCCC[C@H]1C(=O)N(C)[C@@H](CCCC)C(=O)N[C@@H](CO)C(=O)NC(C(=O)NCC(N)=O)CSCC(=O)N[C@@H](Cc2ccc(O)cc2)C(=O)N(C)[C@@H](C)C(=O)N[C@@H](CC(N)=O)C(=O)N2CCC[C@H]2C(=O)N[C@@H](CC(N)=O)C(=O)N[C@@H](CC(C)C)C(=O)N2CCC[C@H]2C(=O)N[C@@H](Cc2c[nH]c3ccccc23)C(=O)N[C@@H](CO)C(=O)N[C@@H](Cc2c[nH]c3ccccc23)C(=O)N1C (some centres unmarked) [Example 9140] ({CH2CO}-Y[NMeA]NPNLPWSW[NMeNle][NMeNle]S[ξC]G-NH2; thioether N-14) | Human PD-L1/PD-1 (Homo sapiens, UniProt Q9NZQ7) | pIC50 | 8.00 to 9.00 |

[in] In one line, give reported pIC50 of the entry CCCC[C@H]1C(=O)N(C)[C@@H](CCCC)C(=O)N[C@@H](CC(C)C)C(=O)N[C@H](C(=O)NCC(N)=O)CSCC(=O)N[C@@H](Cc2ccc(OC)cc2)C(=O)N(C)[C@@H](C)C(=O)N[C@@H](CC(N)=O)C(=O)N2CCC[C@H]2C(=O)N[C@@H](CO)C(=O)N[C@@H](CCC(N)=O)C(=O)N2C[C@H](O)C[C@H]2C(=O)N[C@@H](Cc2c[nH]c3ccccc23)C(=O)N[C@@H](CO)C(=O)N[C@@H](Cc2c[nH]c3ccccc23)C(=O)N1C [Example 7136] ({CH2CO}-Y(Me)[NMeA]NPSQ[Hyp]WSW[NMeNle][NMeNle]LCG-NH2; thioether N-14) .
[out] 8.00 to 9.00

[in] In one line, give reported pIC50 of the entry CCCC[C@H]1C(=O)N(C)[C@@H](CCCC)C(=O)N[C@@H](CCC(=O)O)C(=O)NC(C(=O)NCC(N)=O)CSCC(=O)N[C@@H](Cc2ccc(O)cc2)C(=O)N(C)[C@@H](C)C(=O)N[C@@H](CC(N)=O)C(=O)N2CCC[C@H]2C(=O)N[C@@H](CC(N)=O)C(=O)N[C@@H](CC(C)C)C(=O)N2CCC[C@H]2C(=O)N[C@@H](Cc2c[nH]c3ccccc23)C(=O)N[C@@H](CO)C(=O)N[C@@H](Cc2c[nH]c3ccccc23)C(=O)N1C (some centres unmarked) [Example 9168] ({CH2CO}-Y[NMeA]NPNLPWSW[NMeNle][NMeNle]E[ξC]G-NH2; thioether N-14) .
[out] 8.00 to 9.00
